Reported post-emergence activity against ABUTH is given for each of the following compounds.
Test system: ABUTH
assay_text: Herbicidal post-emergence action - Part II
Type: in vivo, Abutilon theophrasti
setup_conditions: 5 g/ha; Table E1a
Number only, in %; omit the unit.

Record excerpt, results attached:
Cn1c(C(F)(F)F)cc(=O)n(-c2cc(C3=NOC4(CCN(Cc5ccccc5F)C4=O)C3)c(Cl)cc2F)c1=O (racemic)
80
Cn1c(C(F)(F)F)cc(=O)n(-c2cc(C3=NOC4(CCCN(Cc5c(F)cccc5F)C4=O)C3)c(Cl)cc2F)c1=O (racemic)
100
Cn1c(C(F)(F)F)cc(=O)n(-c2cc(C3=NOC4(CCN(Cc5c(F)cccc5F)C4=O)C3)c(Cl)cc2F)c1=O (racemic)
100
Cn1c(C(F)(F)F)cc(=O)n(-c2cc(C3=NOC4(CCN(Cc5cccc(F)c5F)C4=O)C3)c(Cl)cc2F)c1=O (racemic)
100
CN1CCCC2(CC(c3cc(-n4c(=O)cc(C(F)(F)F)n(C)c4=O)c(F)cc3Cl)=NO2)C1=O (racemic)
100

Proceeding to the next compound to report its post-emergence activity against ABUTH.
Check the records and state post-emergence activity against ABUTH for Cn1c(C(F)(F)F)cc(=O)n(-c2cc(C3=NOC4(CCNC4=O)C3)c(Cl)cc2F)c1=O (racemic)
80

====

Tested on: MATIN
assay_text: Herbicidal post-emergence action - Part II
Format: in vivo, Matricaria inodora
setup_conditions: 20 g/ha; Table E4b
reported_property: post-emergence activity against MATIN (%)
Number only, in %; omit the unit.

Cn1c(C(F)(F)F)cc(=O)n(-c2cc(C3=NOC4(CCCNC4=O)C3)c(Cl)cc2F)c1=O (racemic) [Compound I-67]
100

Check the records and state post-emergence activity against MATIN for COC(=O)CN1CCCC2(CC(c3cc(-n4c(=O)cc(C(F)(F)F)n(C)c4=O)c(F)cc3Cl)=NO2)C1=O (racemic) [Compound I-57]
100

Check the records and state post-emergence activity against MATIN for Cn1c(C(F)(F)F)cc(=O)n(-c2cc(C3=NOC4(CCCN(Cc5ccccc5F)C4=O)C3)c(Cl)cc2F)c1=O (racemic) [Compound I-7]
80

Check the records and state post-emergence activity against MATIN for Cn1c(C(F)(F)F)cc(=O)n(-c2cc(C3=NOC4(CCN(Cc5cccc(F)c5F)C4=O)C3)c(Cl)cc2F)c1=O (racemic) [Compound I-33]
100

Check the records and state post-emergence activity against MATIN for Cn1c(C(F)(F)F)cc(=O)n(-c2cc(C3=NOC4(CCN(Cc5ccccc5F)C4=O)C3)c(Cl)cc2F)c1=O (racemic) [Compound I-28]
100

Check the records and state post-emergence activity against MATIN for Cn1c(C(F)(F)F)cc(=O)n(-c2cc(C3=NOC4(CCNC4=O)C3)c(Cl)cc2F)c1=O (racemic) [Compound I-71]
80

Check the records and state post-emergence activity against MATIN for Cn1c(C(F)(F)F)cc(=O)n(-c2cc(C3=NOC4(CCN(Cc5c(F)cccc5F)C4=O)C3)c(Cl)cc2F)c1=O (racemic) [Compound I-29]
100

Check the records and state post-emergence activity against MATIN for CN1CCCC2(CC(c3cc(-n4c(=O)cc(C(F)(F)F)n(C)c4=O)c(F)cc3Cl)=NO2)C1=O (racemic) [Compound I-56]
100

Check the records and state post-emergence activity against MATIN for Cn1c(C(F)(F)F)cc(=O)n(-c2cc(C3=NOC4(CCN(Cc5ccccc5Cl)C4=O)C3)c(Cl)cc2F)c1=O (racemic) [Compound I-30]
100

====

Test system: VIOTR
assay_text: Herbicidal post-emergence action - Part II
Format: in vivo, Viola tricolor
setup_conditions: 5 g/ha; Table E9a
reported_property: post-emergence activity against VIOTR
Answer shape: numeric part, then the unit.

Check the records and state post-emergence activity against VIOTR for Cn1c(C(F)(F)F)cc(=O)n(-c2cc(C3=NOC4(CCN(Cc5ccccc5Cl)C4=O)C3)c(Cl)cc2F)c1=O (racemic) [Compound I-30]
100%

Check the records and state post-emergence activity against VIOTR for CN1CCCC2(CC(c3cc(-n4c(=O)cc(C(F)(F)F)n(C)c4=O)c(F)cc3Cl)=NO2)C1=O (racemic) [Compound I-56]
100%

Check the records and state post-emergence activity against VIOTR for Cn1c(C(F)(F)F)cc(=O)n(-c2cc(C3=NOC4(CCCN(Cc5c(F)cccc5F)C4=O)C3)c(Cl)cc2F)c1=O (racemic) [Compound I-6]
100%

====

Test system: POLCO
assay_text: Herbicidal post-emergence action - Part II
Format: in vivo, Polygonum convolvulus
setup_conditions: 20 g/ha; Table E6
Reported post-emergence activity against POLCO is given for each of the following compounds.
Number only, in %; omit the unit.

Record excerpt, results attached:
Cn1c(C(F)(F)F)cc(=O)n(-c2cc(C3=NOC4(CCN(Cc5cccc(F)c5F)C4=O)C3)c(Cl)cc2F)c1=O (racemic)
100
Cn1c(C(F)(F)F)cc(=O)n(-c2cc(C3=NOC4(CCCN(Cc5ccccc5F)C4=O)C3)c(Cl)cc2F)c1=O (racemic)
100
COC(=O)CN1CCC2(CC(c3cc(-n4c(=O)cc(C(F)(F)F)n(C)c4=O)c(F)cc3Cl)=NO2)C1=O (racemic)
100
COC(=O)CN1CCCC2(CC(c3cc(-n4c(=O)cc(C(F)(F)F)n(C)c4=O)c(F)cc3Cl)=NO2)C1=O (racemic)
100
Cn1c(C(F)(F)F)cc(=O)n(-c2cc(C3=NOC4(CCN(Cc5c(F)cccc5F)C4=O)C3)c(Cl)cc2F)c1=O (racemic)
100

Report the value of post-emergence activity against POLCO obtained on POLCO for CN1CCCC2(CC(c3cc(-n4c(=O)cc(C(F)(F)F)n(C)c4=O)c(F)cc3Cl)=NO2)C1=O (racemic) .
100

Report the value of post-emergence activity against POLCO obtained on POLCO for Cn1c(C(F)(F)F)cc(=O)n(-c2cc(C3=NOC4(CCNC4=O)C3)c(Cl)cc2F)c1=O (racemic) .
80

====

System: STEME
assay_text: Herbicidal post-emergence action - Part I
Format: in vivo, Stellaria media
setup_conditions: 320 g/ha, one-leaf stage, rated visually after about 3 weeks vs untreated controls
reported_property: post-emergence activity at 320g/ha against STEME in % (%)
Number only, in %; omit the unit.

O=C1N(Cc2c(F)cccc2F)CCC12CC(c1ccccc1F)=NO2 (racemic)
90
Cc1ccsc1C1=NOC2(CCCN(Cc3ccccc3F)C2=O)C1 (racemic)
90
COc1ncccc1C1=NOC2(CCN(Cc3cccc(F)c3F)C2=O)C1 (racemic)
100

Proceeding to the next compound to report its post-emergence activity at 320g/ha against STEME in %.
Check the records and state post-emergence activity at 320g/ha against STEME in % for N#Cc1ncccc1C1=NOC2(CCN(Cc3cccc(F)c3F)C2=O)C1 (racemic)
100

====

Reported post-emergence activity at 320g/ha against MATIN in % is given for each of the following molecules.
Test system: MATIN
assay_text: Herbicidal post-emergence action - Part I
Type: in vivo, Matricaria inodora
setup_conditions: 320 g/ha, one-leaf stage, rated visually after about 3 weeks vs untreated controls

Check the records and state post-emergence activity at 320g/ha against MATIN in % for COc1ncccc1C1=NOC2(CCN(Cc3cccc(F)c3F)C2=O)C1 (racemic)
100%

Check the records and state post-emergence activity at 320g/ha against MATIN in % for N#Cc1ncccc1C1=NOC2(CCN(Cc3cccc(F)c3F)C2=O)C1 (racemic)
100%

Check the records and state post-emergence activity at 320g/ha against MATIN in % for Cc1ccsc1C1=NOC2(CCCN(Cc3c(F)cccc3F)C2=O)C1 (racemic)
90%

Check the records and state post-emergence activity at 320g/ha against MATIN in % for O=C1N(Cc2ccccc2F)CCC12CC(c1c(F)cccc1F)=NO2 (racemic)
90%

====

Test system: MATIN
assay_text: Herbicidal pre-emergence action - Part I
Assay type: in vivo, Matricaria inodora
setup_conditions: 1280 g/ha, visual grading after ca. 3 weeks vs untreated controls
Reported pre-emergence activity at 1280g/ha against MATIN in % is given for each of the following molecules.
Number only, in %; omit the unit.

Record excerpt, results attached:
Cc1ccsc1C1=NOC2(CCN(Cc3ccccc3F)C2=O)C1 (racemic)
90
Cc1ccsc1C1=NOC2(CCCN(Cc3c(F)cccc3F)C2=O)C1 (racemic)
90
O=C1N(Cc2ccccc2F)CCC12CC(c1c(F)cccc1F)=NO2 (racemic)
90
Cc1ccsc1C1=NOC2(CCN(Cc3c(F)cccc3F)C2=O)C1 (racemic)
90

Check the records and state pre-emergence activity at 1280g/ha against MATIN in % for Cc1ccsc1C1=NOC2(CCCN(Cc3ccccc3F)C2=O)C1 (racemic)
100

====

Reported pre-emergence activity at 1280g/ha against MATIN in % is given for each of the following compounds.
Test system: MATIN
assay_text: Herbicidal pre-emergence action - Part I
Type: in vivo, Matricaria inodora
setup_conditions: 1280 g/ha, visual grading after ca. 3 weeks vs untreated controls
Number only, in %; omit the unit.

Record excerpt, results attached:
Cc1ccsc1C1=NOC2(CCCN(Cc3cccc(F)c3F)C2=O)C1 (racemic) [Compound I-3]
90
N#Cc1ncccc1C1=NOC2(CCN(Cc3cccc(F)c3F)C2=O)C1 (racemic) [Compound I-41]
100
O=C1N(Cc2c(F)cccc2F)CCC12CC(c1ccccc1F)=NO2 (racemic) [Compound I-27]
90

Proceeding to the next compound to report its pre-emergence activity at 1280g/ha against MATIN in %.
Check the records and state pre-emergence activity at 1280g/ha against MATIN in % for N#Cc1ncccc1C1=NOC2(CCN(Cc3ccccc3F)C2=O)C1 (racemic) [Compound I-35]
90
